Reference source for all entries: the supplement of paper PMC6763611

Test system: Plasmodium falciparum NF54
TEST_DETAILS: growth inhibition relative to untreated control; higher = more inhibition
EXPERIMENTAL_CONDITIONS: 1 µM; minimal medium (MM); 72 h
Binary call on growth inhibition: True from 30% upward, False beneath that.

| SMILES_TEXT | LABEL_CLASS |
| --- | --- |
| CC(C)(CN)c1nc(-c2ccc(Cl)c(O)c2)c(-c2ccnc(N)n2)[nH]1 | True |
| Nc1cccnc1Nc1ccc(Cl)cc1 | False |
| COc1ccc(-c2cnc3ccc(N4CCCC4)nn23)cc1OC | True |
| CC(=O)NC[C@H]1CN(c2ccc(N3CCSCC3)c(F)c2)C(=O)O1 | True |
| O=C(COc1cccc(F)c1)Nc1nc(-c2ccccn2)cs1 | False |
| O=C(Nc1cnc2ccccc2c1)c1cccc(-n2cnnn2)c1 | True |
| O=C(Nc1ccc2c(c1)B(O)OC2)c1ccccc1C(F)(F)F | True |
| O=C(OCc1ccccc1)N1CCC(c2cc(-c3ccncc3)c(-c3ccc(F)cc3)[nH]2)CC1 | True |
| CCOc1ccc(OCC(=O)Nc2cc(C)cc(C)c2)cc1 | False |

====

Test system: Plasmodium falciparum NF54
TEST_DETAILS: growth inhibition relative to untreated control; higher = more inhibition
EXPERIMENTAL_CONDITIONS: 1 µM; minimal medium (MM); 72 h
ENDPOINT: growth inhibition (%)

| COMPOUND | ENDPOINT | MEASURE_UNIT | QUALIFIER_OPERATOR | NUMERIC_RESULT |
| --- | --- | --- | --- | --- |
| O=C(C(Cc1c[nH]c2ccccc12)NS(=O)(=O)c1ccc(Cl)cc1)N1CCCCC1 (stereo unspecified) | growth inhibition | % | = | 56.9 |
| Clc1ccc(-n2cc(COc3ccnc4ccccc34)nn2)cc1 | growth inhibition | % | < | 0 |
| CNC(=O)CNc1nc(-c2ccccn2)nc2scc(-c3ccccc3)c12 | growth inhibition | % | = | 9.62 |
| FC(F)(F)c1cccc(-c2nc3c(NCc4ccncc4)nccc3[nH]2)c1 | growth inhibition | % | > | 100 |
| CCc1ccccc1-n1c(C)cn2c3c(=O)n(C(C(=O)OC)C(C)C)c(=O)n(C)c3nc12 (stereo unspecified) | growth inhibition | % | = | 83 |
| CCN(CC)CCCCCCNc1cc(OC)cc2c(C)ccnc12 | growth inhibition | % | = | 92.8 |

====

System: Plasmodium falciparum NF54
TEST_DETAILS: growth inhibition relative to untreated control; higher = more inhibition
EXPERIMENTAL_CONDITIONS: 5 µM; minimal medium (MM); 72 h

| COMPOUND | growth inhibition |
| --- | --- |
| O=C(NCCN1CCCC1)c1cc(NCCN2CCOCC2)nc2ccc(Cl)cc12 | 96.8% |
| C[C@H]1c2cccc(O)c2C(=O)C2=C(O)[C@]3(O)C(=O)C(C(N)=O)=C(O)[C@@H](N(C)C)[C@@H]3[C@@H](O)[C@@H]21 | < 0% |
| Cc1ccc2nc(C)c(-c3ccn(Cc4ccccc4)n3)n2c1 | < 0% |
| Nc1ncnc2c1ncn2C[C@@H](O)[C@@H](O)C(=O)O | < 0% |
| O=C(Nc1nnc(-c2ccc(Cl)cc2)o1)c1cccc(C(F)(F)F)c1 | < 0% |
| Cc1cccc(NC(=O)c2cc(S(=O)(=O)N(C)c3ccc(F)cc3)ccc2Cl)n1 | 91.5% |
| CN1CCN(c2nccc3[nH]c(-c4cccc(F)c4)cc23)CC1 | 90% |
| CCCn1c(NC(=O)c2ccc3ccccc3n2)nc2ccccc21 | 85% |
| O=C(N[C@H](Cc1ccccc1)C(=O)Nc1ccccc1N1CCOCC1)c1cccs1 | 27.5% |
| CCc1ccc(S(=O)(=O)Nc2cc(CN3CCN(CCC(C)C)CC3)ccc2C)cc1 | 13.6% |
| COc1ccccc1CNC(=O)c1cc(C2CC2)nc2c1cnn2C(C)C | 91.4% |
| CC(C)=CCC/C(C)=C/CNCCNC1C2CC3CC(C2)CC1C3 (stereo unspecified) | 91.3% |
| O=C(Nc1cccc(-c2ccc(NCCCN3CCCC3)nc2)c1)c1ccccc1 | 81.1% |
| O=C(NC1CCN(c2ccnc3ccccc23)C1)c1cccc(C(F)(F)F)c1 (stereo unspecified) | 66.7% |
| N#Cc1ccc(-c2ccc(OCC(N)=O)cc2)cc1 | < 0% |
| COC(=O)c1ccc(F)cc1NS(=O)(=O)c1cccc(-c2cnn(Cc3ccccc3)c2)c1 | < 0% |
| COC(=O)C1=C(C)NC(C)=C(C(=O)OC(C)C)C1c1cccc2nonc12 (stereo unspecified) | 18.7% |
| Cc1nc(-c2ccccn2)nc(NCCc2ccc(S(C)(=O)=O)cc2)c1Cl | < 0% |
| CC(=O)NCC1CN(c2ccc(-c3ccc(CNCc4cn[nH]n4)cc3)c(F)c2)C(=O)O1 (stereo unspecified) | < 0% |
| Cc1nn2c(=O)c3c([nH]c2c1-c1ccc(Cl)cc1)CCCC3 | 16.2% |
| CN(C)c1cc(NC(=O)Nc2ccccc2)c2ccccc2n1 | 87.9% |
